B1: CPEB3 Ribozyme (parent)
chain: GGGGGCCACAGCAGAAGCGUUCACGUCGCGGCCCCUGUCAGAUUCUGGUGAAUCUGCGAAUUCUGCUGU

# Variants of: B1
# TEST_DETAILS: self-cleavage, relative activity (ratio to wild type); higher = more cleavage; co-transcriptional
Examples of variants with documented self-cleavage follow.

[
  {
    "VARIANT_IDENTIFIER": "C35A U61A",
    "self-cleavage": 0.231
  },
  {
    "VARIANT_IDENTIFIER": "C12G C57A",
    "self-cleavage": 0.25
  },
  {
    "VARIANT_IDENTIFIER": "A15U G17A",
    "self-cleavage": 0.159
  },
  {
    "VARIANT_IDENTIFIER": "U21G U46G",
    "self-cleavage": 0.503
  },
  {
    "VARIANT_IDENTIFIER": "C54A U69C",
    "self-cleavage": 1.04
  },
  {
    "VARIANT_IDENTIFIER": "G5U U46A",
    "self-cleavage": 0.24
  },
  {
    "VARIANT_IDENTIFIER": "U55A C63G",
    "self-cleavage": 0.438
  },
  {
    "VARIANT_IDENTIFIER": "G31U C45G",
    "self-cleavage": 0.559
  },
  {
    "VARIANT_IDENTIFIER": "G11C C24A",
    "self-cleavage": 0.321
  },
  {
    "VARIANT_IDENTIFIER": "A13G U64G",
    "self-cleavage": 0.745
  },
  {
    "VARIANT_IDENTIFIER": "A60U U67C",
    "self-cleavage": 0.471
  },
  {
    "VARIANT_IDENTIFIER": "A60G C63A",
    "self-cleavage": 0.429
  },
  {
    "VARIANT_IDENTIFIER": "A51G C63A",
    "self-cleavage": 0.884
  },
  {
    "VARIANT_IDENTIFIER": "C7A U21A",
    "self-cleavage": 0.576
  },
  {
    "VARIANT_IDENTIFIER": "A40C U67G",
    "self-cleavage": 0.744
  },
  {
    "VARIANT_IDENTIFIER": "A8C C12G",
    "self-cleavage": 0.798
  },
  {
    "VARIANT_IDENTIFIER": "C22U G65C",
    "self-cleavage": 0.248
  },
  {
    "VARIANT_IDENTIFIER": "G11C C66A",
    "self-cleavage": 0.844
  },
  {
    "VARIANT_IDENTIFIER": "G11A C45G",
    "self-cleavage": 0.859
  },
  {
    "VARIANT_IDENTIFIER": "G11U C66G",
    "self-cleavage": 0.949
  },
  {
    "VARIANT_IDENTIFIER": "U21G C32U",
    "self-cleavage": 0.609
  },
  {
    "VARIANT_IDENTIFIER": "G37U A40G",
    "self-cleavage": 0.366
  },
  {
    "VARIANT_IDENTIFIER": "C6A A16C",
    "self-cleavage": 0.0824
  },
  {
    "VARIANT_IDENTIFIER": "G37U U55C",
    "self-cleavage": 0.214
  },
  {
    "VARIANT_IDENTIFIER": "U20C G56A",
    "self-cleavage": 0.223
  },
  {
    "VARIANT_IDENTIFIER": "U20A U69G",
    "self-cleavage": 0.282
  },
  {
    "VARIANT_IDENTIFIER": "G2A A59C",
    "self-cleavage": 0.0548
  },
  {
    "VARIANT_IDENTIFIER": "A15U G28C",
    "self-cleavage": 0.206
  },
  {
    "VARIANT_IDENTIFIER": "U26A C57G",
    "self-cleavage": 0.216
  },
  {
    "VARIANT_IDENTIFIER": "U43A C54G",
    "self-cleavage": 0.418
  },
  {
    "VARIANT_IDENTIFIER": "U53G A60U",
    "self-cleavage": 0.301
  },
  {
    "VARIANT_IDENTIFIER": "U43G A51U",
    "self-cleavage": 0.934
  },
  {
    "VARIANT_IDENTIFIER": "U38A U49A",
    "self-cleavage": 0.846
  },
  {
    "VARIANT_IDENTIFIER": "A16G G56A",
    "self-cleavage": 0.703
  },
  {
    "VARIANT_IDENTIFIER": "C18G G31U",
    "self-cleavage": 0.181
  },
  {
    "VARIANT_IDENTIFIER": "G47U U53C",
    "self-cleavage": 1.02
  },
  {
    "VARIANT_IDENTIFIER": "C35G G48U",
    "self-cleavage": 0.491
  },
  {
    "VARIANT_IDENTIFIER": "G2C U62A",
    "self-cleavage": 0.0592
  },
  {
    "VARIANT_IDENTIFIER": "A8G A52U",
    "self-cleavage": 0.803
  },
  {
    "VARIANT_IDENTIFIER": "A23U G56U",
    "self-cleavage": 0.955
  },
  {
    "VARIANT_IDENTIFIER": "C18U U67C",
    "self-cleavage": 0.802
  },
  {
    "VARIANT_IDENTIFIER": "A13G A60U",
    "self-cleavage": 0.282
  },
  {
    "VARIANT_IDENTIFIER": "G2U U21G",
    "self-cleavage": 0.0462
  },
  {
    "VARIANT_IDENTIFIER": "G37C A40U",
    "self-cleavage": 0.267
  },
  {
    "VARIANT_IDENTIFIER": "G17C U55C",
    "self-cleavage": 0.138
  },
  {
    "VARIANT_IDENTIFIER": "C22A C66G",
    "self-cleavage": 0.138
  },
  {
    "VARIANT_IDENTIFIER": "U38A U55C",
    "self-cleavage": 0.846
  },
  {
    "VARIANT_IDENTIFIER": "G48C A59G",
    "self-cleavage": 0.989
  },
  {
    "VARIANT_IDENTIFIER": "U49C U67C",
    "self-cleavage": 0.986
  },
  {
    "VARIANT_IDENTIFIER": "G14A G68C",
    "self-cleavage": 0.756
  },
  {
    "VARIANT_IDENTIFIER": "C7G U64A",
    "self-cleavage": 0.279
  },
  {
    "VARIANT_IDENTIFIER": "A42U U69C",
    "self-cleavage": 1.04
  },
  {
    "VARIANT_IDENTIFIER": "G48U G65U",
    "self-cleavage": 0.909
  },
  {
    "VARIANT_IDENTIFIER": "U46G C63A",
    "self-cleavage": 0.869
  },
  {
    "VARIANT_IDENTIFIER": "G4C G58U",
    "self-cleavage": 0.71
  },
  {
    "VARIANT_IDENTIFIER": "G3C C54G",
    "self-cleavage": 0.0518
  },
  {
    "VARIANT_IDENTIFIER": "U49G G58A",
    "self-cleavage": 0.912
  },
  {
    "VARIANT_IDENTIFIER": "C24G C35U",
    "self-cleavage": 0.261
  },
  {
    "VARIANT_IDENTIFIER": "G19U G41A",
    "self-cleavage": 0.181
  },
  {
    "VARIANT_IDENTIFIER": "G11U U20A",
    "self-cleavage": 0.119
  },
  {
    "VARIANT_IDENTIFIER": "A40U A51C",
    "self-cleavage": 0.564
  },
  {
    "VARIANT_IDENTIFIER": "G17U C29G",
    "self-cleavage": 0.885
  },
  {
    "VARIANT_IDENTIFIER": "C57U G68A",
    "self-cleavage": 0.395
  },
  {
    "VARIANT_IDENTIFIER": "C33G C54G",
    "self-cleavage": 0.338
  },
  {
    "VARIANT_IDENTIFIER": "G30U U55G",
    "self-cleavage": 0.232
  },
  {
    "VARIANT_IDENTIFIER": "G14U A15G",
    "self-cleavage": 0.843
  },
  {
    "VARIANT_IDENTIFIER": "G1C A16U",
    "self-cleavage": 0.159
  },
  {
    "VARIANT_IDENTIFIER": "U46A A59G",
    "self-cleavage": 1.02
  },
  {
    "VARIANT_IDENTIFIER": "C7U C45A",
    "self-cleavage": 0.919
  },
  {
    "VARIANT_IDENTIFIER": "G3C G4C",
    "self-cleavage": 0.137
  },
  {
    "VARIANT_IDENTIFIER": "A23G A59C",
    "self-cleavage": 0.699
  },
  {
    "VARIANT_IDENTIFIER": "C12G G58A",
    "self-cleavage": 0.852
  },
  {
    "VARIANT_IDENTIFIER": "U20A U46G",
    "self-cleavage": 0.128
  },
  {
    "VARIANT_IDENTIFIER": "G1A U61C",
    "self-cleavage": 0.0531
  },
  {
    "VARIANT_IDENTIFIER": "C39U U46G",
    "self-cleavage": 0.997
  },
  {
    "VARIANT_IDENTIFIER": "C45A U67C",
    "self-cleavage": 0.98
  },
  {
    "VARIANT_IDENTIFIER": "A8G A16U",
    "self-cleavage": 0.457
  },
  {
    "VARIANT_IDENTIFIER": "C54A C57G",
    "self-cleavage": 0.338
  },
  {
    "VARIANT_IDENTIFIER": "U20C G47U",
    "self-cleavage": 0.239
  },
  {
    "VARIANT_IDENTIFIER": "G4C C22A",
    "self-cleavage": 0.0918
  },
  {
    "VARIANT_IDENTIFIER": "G31A G37A",
    "self-cleavage": 0.193
  },
  {
    "VARIANT_IDENTIFIER": "G4U C45U",
    "self-cleavage": 0.743
  },
  {
    "VARIANT_IDENTIFIER": "G2A U20G",
    "self-cleavage": 0.0568
  },
  {
    "VARIANT_IDENTIFIER": "C63G C66A",
    "self-cleavage": 0.248
  }
]

Data origin: the RNAGym collection of RNA variant scans (doi:10.7554/elife.80360)
